target_or_test_system: maize (Zea mays) class I EPSPS variant TIPM (T102I, P106M), pMON42484 (Zea mays, UniProt O24566, P106M/T102I)
Construct: pMON42484
Sequence (O24566 1-444 T102I/P106M): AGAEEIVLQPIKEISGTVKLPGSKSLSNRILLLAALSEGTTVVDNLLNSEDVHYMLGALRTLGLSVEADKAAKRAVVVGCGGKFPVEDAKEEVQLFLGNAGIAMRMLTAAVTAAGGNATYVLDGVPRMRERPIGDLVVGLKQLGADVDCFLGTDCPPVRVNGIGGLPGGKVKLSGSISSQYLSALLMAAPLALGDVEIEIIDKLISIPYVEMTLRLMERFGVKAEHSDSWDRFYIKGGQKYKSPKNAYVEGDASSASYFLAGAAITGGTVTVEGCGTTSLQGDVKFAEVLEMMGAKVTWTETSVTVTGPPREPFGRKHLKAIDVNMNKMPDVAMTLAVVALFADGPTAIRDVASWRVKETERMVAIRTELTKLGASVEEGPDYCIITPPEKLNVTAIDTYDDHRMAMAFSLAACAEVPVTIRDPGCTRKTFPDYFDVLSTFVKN
measurement_description: EPSPS steady-state kinetics, TIPM variant
experimental_endpoint: Ki
Reply with the number and its unit after it.

INPUT: Look up Ki: O=C(O)CNCP(=O)(O)O [glyphosate, N-phosphonomethylglycine]
OUTPUT: 37.2 mM

----------
target_or_test_system: maize (Zea mays) class I EPSPS variant TIPA (T102I, P106A), pMON42481, ZmTIPA SEQ ID NO:39 (Zea mays, UniProt O24566, P106A/T102I)
Construct: pMON42481
Sequence (O24566 1-444 T102I/P106A): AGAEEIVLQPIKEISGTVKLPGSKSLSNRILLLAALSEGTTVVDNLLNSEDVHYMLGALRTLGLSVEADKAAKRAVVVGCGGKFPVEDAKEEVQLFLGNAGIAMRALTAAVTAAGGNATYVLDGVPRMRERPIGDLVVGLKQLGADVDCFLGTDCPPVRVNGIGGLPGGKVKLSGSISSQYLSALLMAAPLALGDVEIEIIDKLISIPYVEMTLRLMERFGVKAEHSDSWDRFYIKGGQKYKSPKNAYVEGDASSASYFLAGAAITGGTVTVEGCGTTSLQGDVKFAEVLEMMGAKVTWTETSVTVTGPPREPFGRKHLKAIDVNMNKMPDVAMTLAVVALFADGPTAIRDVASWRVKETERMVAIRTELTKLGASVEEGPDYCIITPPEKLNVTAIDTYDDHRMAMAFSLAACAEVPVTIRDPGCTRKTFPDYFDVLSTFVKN
measurement_description: EPSPS steady-state kinetics, TIPA variant
experimental_endpoint: Ki (µM)
Answer in µM, number only, no unit symbol.

INPUT: Look up Ki: O=C(O)CNCP(=O)(O)O [glyphosate, N-phosphonomethylglycine]
OUTPUT: 148
